Data origin: patent US10189843B2

Recorded measurements of IC50, one per entry
test_target: Human autotaxin enzyme (Homo sapiens, UniProt Q13822)

Below, each entry is followed by its recorded IC50 result.
C[C@H]1CN(Cc2ccc(C#N)cc2)C(=O)c2cc(-c3ccc(Cl)cc3CO)nn21 [Compound I-0297] : 100 to 1000 nM
C[C@H]1CN(Cc2ccc(C#N)cc2)C(=O)c2cc(-c3ccc(Cl)cc3)nn21 [Compound I-0165] : ≥ 1000 nM
C[C@H]1CN(CC(=O)NCCCC(=O)O)C(=O)c2cc(-c3ccc(Cl)cc3)nn21 [Compound I-0157] : ≥ 1000 nM
CCCCCC1CN(CC(=O)NCCN(C)C)C(=O)c2cc(-c3ccc(Cl)cc3)nn21 (stereo not shown) [Compound I-0103] : ≥ 1000 nM
CCCCC1CN(CC(=O)N(C)CC#N)C(=O)c2cc(-c3ccc(Cl)cc3)nn21 (stereo not shown) [Compound I-0208] : 10 to 100 nM
CCCCCC1CN(CC(=O)N2CCC(O)CC2)C(=O)c2cc(-c3ccc(Cl)cc3)nn21 (stereo not shown) [Compound I-0094] : 10 to 100 nM
CCCCCC1CN(Cc2ccc(C#N)cc2)C(=O)c2cc(-c3ccc(Cl)cc3)nn21 (stereo not shown) [Compound I-0132] : 10 to 100 nM
CCCCC1CN(CCn2cccc2)C(=O)c2cc(-c3ccc(Cl)cc3)nn21 (stereo not shown) [Compound I-0267] : 100 to 1000 nM
C[C@H]1CN(Cc2cccc(C(=O)N3CCC(O)CC3)c2)C(=O)c2cc(-c3ccc(Cl)cc3)nn21 [Compound I-0167] : ≥ 1000 nM
N#Cc1ccc(CN2CC(CC(F)(F)F)n3nc(-c4c(C#N)cc(Cl)cc4CO)cc3C2=O)cc1 (stereo not shown) [Compound I-0371] : 100 to 1000 nM

GET /values?readout=IC50&system=Human autotaxin enzyme (Homo sapiens, UniProt Q13822)&item= CCCCCC1CNC(=O)c2cc(-c3ccc(Cl)cc3)nn21 (stereo not shown) [Compound I-0001] ≥ 1000 nM
